test_system: Adenylate cyclase type 1 (Homo sapiens, UniProt Q08828)
Sequence (Q08828 whole entry): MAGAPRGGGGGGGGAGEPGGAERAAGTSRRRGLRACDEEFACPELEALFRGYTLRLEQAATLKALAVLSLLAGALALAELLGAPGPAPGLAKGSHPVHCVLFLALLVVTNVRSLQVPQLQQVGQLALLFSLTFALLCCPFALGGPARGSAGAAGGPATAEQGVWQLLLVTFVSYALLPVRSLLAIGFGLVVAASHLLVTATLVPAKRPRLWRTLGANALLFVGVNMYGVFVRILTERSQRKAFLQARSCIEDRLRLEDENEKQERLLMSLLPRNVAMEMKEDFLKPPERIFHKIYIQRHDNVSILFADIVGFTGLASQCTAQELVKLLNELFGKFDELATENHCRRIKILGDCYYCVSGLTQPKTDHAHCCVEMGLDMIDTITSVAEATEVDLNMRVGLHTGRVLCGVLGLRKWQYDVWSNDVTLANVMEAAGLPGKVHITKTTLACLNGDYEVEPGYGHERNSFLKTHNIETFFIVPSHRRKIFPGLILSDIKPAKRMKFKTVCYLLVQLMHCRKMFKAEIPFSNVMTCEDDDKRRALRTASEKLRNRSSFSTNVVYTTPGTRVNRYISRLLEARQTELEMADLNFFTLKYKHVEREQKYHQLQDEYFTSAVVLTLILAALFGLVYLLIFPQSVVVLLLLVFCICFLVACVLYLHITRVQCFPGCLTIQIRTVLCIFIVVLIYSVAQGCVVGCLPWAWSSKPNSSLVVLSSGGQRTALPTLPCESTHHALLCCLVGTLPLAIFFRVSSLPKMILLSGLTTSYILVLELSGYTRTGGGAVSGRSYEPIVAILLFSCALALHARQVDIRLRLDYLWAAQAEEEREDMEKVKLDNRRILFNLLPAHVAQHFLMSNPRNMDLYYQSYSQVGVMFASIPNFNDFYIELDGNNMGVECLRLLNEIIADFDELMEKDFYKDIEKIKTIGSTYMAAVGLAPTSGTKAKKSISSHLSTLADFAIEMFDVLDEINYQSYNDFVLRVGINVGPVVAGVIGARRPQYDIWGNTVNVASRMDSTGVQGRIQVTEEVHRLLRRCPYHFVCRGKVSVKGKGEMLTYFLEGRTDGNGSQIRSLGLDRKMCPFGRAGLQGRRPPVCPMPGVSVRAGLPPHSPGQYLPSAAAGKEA
assay_info: Inhibition of [125 I]6-IHPP-forskolin binding to adenylate cyclase 1
pIC50: −log10 of the molar value.
Reported values of pIC50 for individual entries
outcome_measure: pIC50

INSERT INTO measurements (compound, data_value) VALUES
  ('C=C[C@@]1(C)CC(=O)[C@]2(O)[C@@]3(C)[C@@H](O)CCC(C)(C)[C@@H]3[C@H](OC(=O)NCC(C)C)[C@H](O)[C@@]2(C)O1', '< 6.82'),
  ('C=C[C@@]1(C)CC(=O)[C@]2(O)[C@@]3(C)[C@@H](O)CCC(C)(C)[C@@H]3[C@H](OC(=O)NCC3CCCCC3)[C@H](OC(C)=O)[C@@]2(C)O1', '< 6.82'),
  ('C=C[C@@]1(C)CC(=O)[C@]2(O)[C@@]3(C)[C@@H](O)CCC(C)(C)[C@@H]3[C@H](O)[C@H](OC(=O)NCCc3ccc(O)cc3)[C@@]2(C)O1', '> 6.82'),
  ('C=C[C@@]1(C)CC(=O)[C@]2(O)[C@@]3(C)[C@@H](O)CCC(C)(C)[C@@H]3[C@H](O)[C@H](OC(=O)NCCC(C)(C)C)[C@@]2(C)O1', '< 6.82'),
  ('C=C[C@@]1(C)CC(=O)[C@]2(O)[C@@]3(C)[C@@H](O)CCC(C)(C)[C@@H]3[C@H](O)[C@H](OC(=O)NCCC(=O)OCC)[C@@]2(C)O1', '< 6.82'),
  ('C=C[C@@]1(C)CC(=O)[C@]2(O)[C@@]3(C)[C@@H](O)CCC(C)(C)[C@@H]3[C@H](OC(=O)NCCN3CCCCC3)[C@H](O)[C@@]2(C)O1', '> 6.82');
